These entries and their values trace back to the METLIN SMRT retention time set (Domingo-Almenara et al. 2019).

Measured RP-LC retention time accompanies every entry in the list below.
Measurement description: gradient 5% acetonitrile 3 min, to 50% in 2 min, to 85% in 15 min, held 3 min, 100 µL/min
Test settings: column: Zorbax Extend-C18 2.1 x 50 mm; eluents: water / acetonitrile, 0.1% formic acid
Field: numeric (s). Do not append units.

Known results for molecules:
# Molecule, RP-LC retention time, s
measured = [
    ("O=C(Cn1c(=O)c2cccn2c2ccc(F)cc21)NCc1cccc(Br)c1", 903),
    ("Cc1c(C(=O)NC2CCCC2)cnn1-c1cc(-c2nc(C3CC3)no2)ccn1", 887),
]

Quick note, RP-LC retention time for COc1ccc(CN2CC(=O)N(c3cccc(C)c3)[C@@H]3CS(=O)(=O)C[C@@H]32)cc1 landed at 788

Quick note, RP-LC retention time for CCC(C)NC(=O)c1ccc(Cn2nc(C)c(S(=O)(=O)N3CCCCC3)c2C)cc1 (centres undefined) landed at 874

* * *

Measurement description: gradient 5% acetonitrile 3 min, to 50% in 2 min, to 85% in 15 min, held 3 min, 100 µL/min
Test settings: column: Zorbax Extend-C18 2.1 x 50 mm; eluents: water / acetonitrile, 0.1% formic acid
Measurement label: RP-LC retention time (s)
Field: numeric (s). Do not append units.

Quick note, RP-LC retention time for c1ccc2c(N3CCNCC3)cccc2c1 landed at 690

Quick note, RP-LC retention time for CCCCc1ccc(NC(=O)Cn2cnc3nc(N4CCCC(C(=O)NC)C4)sc3c2=O)cc1 (centres undefined) landed at 759

Quick note, RP-LC retention time for O=C(CCn1nnc2cc(S(=O)(=O)N3CCCCC3)ccc21)N1CCN(c2ccccn2)CC1 landed at 665

Quick note, RP-LC retention time for CCCNC(=O)C1CCN(c2ccc(SCC(=O)Nc3c(F)cccc3F)nn2)CC1 landed at 614

Quick note, RP-LC retention time for O=C(Cn1nc2c3sc(N4CCCCC4)nc3ncn2c1=O)Nc1cccc(Br)c1 landed at 855

Quick note, RP-LC retention time for CCC(C)(C)NC(=O)c1ccc2c(c1)N(C(=O)NC)CC2 landed at 705

Quick note, RP-LC retention time for O=C(NC1CCCC1)c1cn(-c2cc(-c3nc(C4CC4)no3)ccn2)cn1 landed at 867

Quick note, RP-LC retention time for O=C1CN(Cc2ccc(F)cc2Cl)C2(CCCC2)CN1 landed at 668

Quick note, RP-LC retention time for CCN(CC)CCNC(=O)Cn1ncc2c3ccccc3n(Cc3ccccc3)c2c1=O landed at 605

Quick note, RP-LC retention time for Cc1cccc(Nc2nc(C(=O)NCc3ccc(C)o3)nc3ccccc23)c1 landed at 856

Quick note, RP-LC retention time for CCOc1ccc(OCC)c(NC(=O)C(C)Oc2ccc(=O)n(-c3ccc(F)cc3)n2)c1 (centres undefined) landed at 953

Quick note, RP-LC retention time for Cc1ccc(NC(=O)Cn2c(N3CCOCC3)nc(C)cc2=O)cc1 landed at 680

Quick note, RP-LC retention time for O=C(c1ccn[nH]1)N1CC(F)(F)C[C@H]1c1nc(C2CC2)no1 landed at 712

Quick note, RP-LC retention time for CN(C)[C@@H]1CN(C(=O)c2ccc(Cn3cncn3)o2)CC[C@@H]1CO landed at 518

Quick note, RP-LC retention time for CCn1nnc(NCc2ccc(-c3ccc(C)c(Cl)c3)o2)n1 landed at 1090

Quick note, RP-LC retention time for CCOc1ccc(-c2csc(C)n2)cc1S(=O)(=O)Nc1ccc(OC)cc1 landed at 940

Quick note, RP-LC retention time for Cc1ccnc(Nc2nc(C)c(C(=O)N3CCC(C)CC3)s2)c1 landed at 779

Quick note, RP-LC retention time for COc1ccc(-c2nn(-c3ccccc3)cc2C2NC(=O)NC(C)=C2C(=O)OC(C)C)cc1 (centres undefined) landed at 906

Quick note, RP-LC retention time for Cc1noc(-c2ccnc(-n3cnc(C(=O)NCc4ccc(Cl)cc4)c3)c2)n1 landed at 903
